# TARGET_OR_SYSTEM: VEGF (vascular endothelial growth factor) (UniProt P15692-4 P15692-4:27-191)
# Sequence (P15692 other isoform, or with tags, fused parts or gaps): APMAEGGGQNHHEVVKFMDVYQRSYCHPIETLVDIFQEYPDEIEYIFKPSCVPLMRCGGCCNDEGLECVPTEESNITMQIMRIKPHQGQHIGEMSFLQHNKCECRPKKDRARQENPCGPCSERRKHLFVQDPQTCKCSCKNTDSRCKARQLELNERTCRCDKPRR
# TEST_METHOD_NOTES: competition; ED50, competition ELISA against biotin-labeled VEGF ligand on immobilized VEGF; printed 10^-9 M
# CONDITION_LABEL: chain copies: 2
MEASUREMENT_KIND: EC50

// EC50 lookup, binder = TTTTACCCUGAUGGUAGACGCCGGGGUGTTTTT (mixed) [NX213] , result: ~1 nM
